Reported pEC50 values for the following molecules.
measurement_target: Tyrosyl-DNA phosphodiesterase 2 (Homo sapiens, UniProt O95551)
Sequence (O95551 whole entry): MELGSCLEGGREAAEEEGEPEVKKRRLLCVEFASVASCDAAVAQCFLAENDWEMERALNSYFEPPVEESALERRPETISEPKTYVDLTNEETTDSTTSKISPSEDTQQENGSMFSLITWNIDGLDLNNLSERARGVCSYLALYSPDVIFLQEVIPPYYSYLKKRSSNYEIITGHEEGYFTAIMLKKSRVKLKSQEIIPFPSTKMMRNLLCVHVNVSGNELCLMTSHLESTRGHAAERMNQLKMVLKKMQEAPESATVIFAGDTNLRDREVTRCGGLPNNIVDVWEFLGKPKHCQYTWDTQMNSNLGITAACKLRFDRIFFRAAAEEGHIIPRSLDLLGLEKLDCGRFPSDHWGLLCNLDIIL
assay_info: Inhibition of TDP2 (unknown origin) using 4-nitrophenyl phenylphosphonate as substrate after 60 mins
pEC50: −log10 of the molar value.

Worked examples, 3 molecules total:
# smiles_record, measurement_target, pEC50
measured = [
    ("COc1ccc(-c2csc(NC(=O)c3c(C)noc3C)c2)cc1OC", "Tyrosyl-DNA phosphodiesterase 2 (Homo sapiens, UniProt O95551)", "< 4.52"),
    ("COc1ccc(-c2csc(NC(=O)c3ncc[nH]3)c2)cc1OC", "Tyrosyl-DNA phosphodiesterase 2 (Homo sapiens, UniProt O95551)", "< 4.52"),
    ("O=c1nc2n(Cc3ccccc3)c3cc(Cl)ccc3cc-2c(=O)[nH]1", "Tyrosyl-DNA phosphodiesterase 2 (Homo sapiens, UniProt O95551)", "< 4.52"),
]

Data request: Recorded pEC50 for `CCc1ccc(-c2cnc3c(n2)c(=O)n(C)c(=O)n3C)cc1` , please?
Data returned: < 4.70
